Values were extracted from the RNAGym collection of RNA variant scans (doi:10.1073/pnas.2313332121).

For each of the variants below, state its polymerase ribozyme fitness (log ratio).
B1: TPR t1 (parent)
chain: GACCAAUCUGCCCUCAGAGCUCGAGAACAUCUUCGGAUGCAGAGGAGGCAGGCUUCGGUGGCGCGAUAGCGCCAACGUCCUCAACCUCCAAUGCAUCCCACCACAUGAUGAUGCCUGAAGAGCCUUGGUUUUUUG

Variants of: B1
experimentalProtocol: polymerase ribozyme fitness, log enrichment relative to wild type (log ratio); higher = more active; in vitro selection for triplet polymerase activity
Give bare numbers.

C28A U96A C97A G110A C124A = -3.05
G57C U59A = -0.128
C4G U9A U78C U87G C104A C123U = -2.05
G44A C79A = -3.11
U112G U125C = 0.47

State the recorded polymerase ribozyme fitness (log ratio) for every item in the following list.
1. C11U G51U
2. U33C G77C
3. C8G C15A G51U C76U C98U
4. G35C G63U A74U A90G C123G G127C
5. A74U C88G A118U

Result:
1: -3.04; 2: -5.05; 3: -4.46; 4: -6.64; 5: -1.31

Answer for every listed entry: what is its polymerase ribozyme fitness (log ratio)? The entries follow.
1. G23A A26G C104A
2. C40G G63U G120A

Result:
1. -5.12
2. -0.497
